Molecular target: Rap guanine nucleotide exchange factor 3 (Homo sapiens) (UniProt O95398)
Sequence (O95398 whole entry, looked up): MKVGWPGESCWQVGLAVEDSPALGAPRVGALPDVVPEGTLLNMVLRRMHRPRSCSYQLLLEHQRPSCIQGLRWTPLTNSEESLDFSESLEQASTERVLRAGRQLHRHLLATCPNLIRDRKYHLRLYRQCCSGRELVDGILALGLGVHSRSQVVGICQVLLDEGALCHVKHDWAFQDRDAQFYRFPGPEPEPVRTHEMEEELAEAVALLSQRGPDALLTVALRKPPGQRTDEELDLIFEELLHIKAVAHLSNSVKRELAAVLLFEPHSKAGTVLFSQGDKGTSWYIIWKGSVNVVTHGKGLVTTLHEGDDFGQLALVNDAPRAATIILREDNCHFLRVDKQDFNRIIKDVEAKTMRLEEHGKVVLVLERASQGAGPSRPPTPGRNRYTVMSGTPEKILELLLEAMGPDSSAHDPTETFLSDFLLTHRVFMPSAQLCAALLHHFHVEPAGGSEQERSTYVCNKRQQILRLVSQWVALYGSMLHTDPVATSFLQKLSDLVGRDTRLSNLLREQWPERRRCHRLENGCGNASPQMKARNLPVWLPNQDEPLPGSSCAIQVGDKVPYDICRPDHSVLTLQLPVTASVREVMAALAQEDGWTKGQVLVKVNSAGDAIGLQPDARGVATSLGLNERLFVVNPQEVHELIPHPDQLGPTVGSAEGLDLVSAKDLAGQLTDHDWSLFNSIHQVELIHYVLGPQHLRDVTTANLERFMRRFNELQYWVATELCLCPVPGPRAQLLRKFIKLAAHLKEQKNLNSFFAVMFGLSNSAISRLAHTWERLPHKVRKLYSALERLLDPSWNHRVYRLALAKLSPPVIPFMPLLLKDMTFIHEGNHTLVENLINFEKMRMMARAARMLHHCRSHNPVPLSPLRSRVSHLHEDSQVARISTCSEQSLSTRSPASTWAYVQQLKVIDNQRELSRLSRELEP
Assay: Confirmatory qHTS for antagonist of cAMP-regulated guanine nucleotide exchange factor 3 (EPAC1) (AID 1645880);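 also: plate controls were DMSO only for no effect and full effect of the ATA control for full effect; nearly all actives have a fitted effect of over 55% in size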
Settings: EPAC1 Rap1B-BODIPY-GDP exchange, fluorescence; series mostly up to 115 µM
Inconclusive results are not listed. Calls of active or inactive are those of the source. Calls follow the shape of the dose curve; as a rule, active = well fitted inhibition curve with a large enough effect; inconclusive = small, poorly fitted or top-dose-only effect; inactive = no such curve, though single readings can be large or run the other way.
Reply using exactly one outcome from yes (1) = active, no (0) = inactive

A selection of reference data follows.
> print(dat)
                                   molecule  assigned.category
1  Cc1cccc(Cn2c(SCc3ccc(C(=O)N4CCCCCC4)cc3)nc3ccncc32)c1             no (0)
2  CCn1c2ccccc2c2cc(NC(=O)CSc3nnc(-c4cccc(C)c4)o3)ccc21             no (0)

Ask: Hello, I am checking results. What call was entered for COc1ccc(NS(=O)(=O)c2ccc3[nH]c4c(c3c2)CCCCCC4)cc1 ?
Reply: no (0)

Ask: Query: recorded result category for COc1ccc(C2C=C(c3ccccc3)Nc3nnnn32)cc1 (stereo not given) in this test
Reply: no (0)

Ask: Query: recorded result category for COc1ccc(C(NC(C)=O)c2cc(Cl)c3cccnc3c2O)cc1 (stereo not given) in this test
Reply: no (0)

Ask: Hi, do you know how CC(C)CC1C(=O)N(Cc2cn(CCC3OCCO3)nn2)CCS(=O)(=O)N1Cc1ccc(-c2ccc(F)cc2)cc1 (stereo not given) came out in this test?
Reply: no (0)

Ask: What did this assay record as the result for C=CCCCN(Cc1ccccc1)S(=O)(=O)c1ccccc1Br ?
Reply: no (0)

====

Test system: CP297
Assay: qHTS profiling for inhibitors of Plasmodium falciparum proliferation (AID 504749);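 also: 0% = DMSO vehicle and full inhibition = artemisinin control; nearly all actives have a fitted effect of over 60% in size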
Settings: P. falciparum in erythrocytes, SYBR Green DNA, 72 h; series mostly up to 12.8 µM
Records with an inconclusive call do not appear. Active and inactive are the calls of the source. Calls come from the whole dose curve; as a rule, active = well fitted inhibition curve with a large enough effect; inconclusive = small, poorly fitted or top-dose-only effect; inactive = flat fitted curve, though single readings scatter.
One label from this list, please: class 1 for active, class 0 for inactive

For orientation, consider the following solved cases.
COMPOUND	ASSIGNED_CATEGORY
NCC1CCC(N)C(O[C@@H]2C(O)[C@H](O[C@H]3OC(CO)C(O)C(N)C3O)[C@@H](N)C[C@H]2N)O1 (some centres not stated)	class 0
c1ccc2c(c1)CCC[C@@H]2C1=NCCN1	class 0
CNC1CC(N)[C@H](O)[C@@H](O[C@@H]2OC(CO)C3OC4(OC(C(N)CO)C(O)C(O)C4O)O[C@@H]3[C@H]2O)C1O (some centres not stated)	class 0
COc1cc2nc(N3CCN(C(=O)[C@@H]4CCCO4)CC3)nc(N)c2cc1OC	class 0
CN1CC(=O)N=C1N	class 0

Ask: Which outcome was entered for the compound CC(C)(C)NC(=O)[C@@H]1CC[C@@H]2[C@@H]3CC[C@@H]4NC(=O)C=C[C@@]4(C)[C@H]3CC[C@]21C in this test?
Reply: class 0

Ask: Test call, this compound: CC1C2CCC3C4CC=C5CC(N(C)C)CC[C@@]5(C)C4CC[C@@]32CN1C (some centres not stated)
Reply: class 0

Ask: Called result for CN1CCN([C@@H](c2ccccc2)c2ccc(Cl)cc2)CC1
Reply: class 0

Ask: How did this test come out for C[C@H](C(=O)O)c1cccc(Oc2ccccc2)c1 ?
Reply: class 0

Ask: What outcome does the record of this test show for O=C(OC[C@@H](O)CO)c1ccccc1Nc1ccnc2cc(Cl)ccc12 ?
Reply: class 0

Ask: Test call for this compound, please: CC(C)(C)NC[C@H](O)COc1cccc2c1CCC(=O)N2
Reply: class 0

Data provenance: PubChem BioAssay (NCATS)
